target: T1, human pro-myostatin (human, UniProt O14793 24-375, biotinylated (in the SPR assay)); experiment: SPR Biacore 8K, biotin-antigen captured
T1 construct: Disulfide-linked homodimer; also called proGDF8 (human)
QUANTITY MEASURED: Kd

Using the record for Ab104 (antibody, human IgG4 S228P, kappa, V domains shown) VH: EVQLVESGGGLVQPGGSLRLSCAASGSAFSSYGMSWVRQAPGKGLELVASINSNGGSTYYPDSVKGRFTISRDNAKNSLYLQMNSLRAEDTAVYYCARDLLVKFLSWSHYYGMDVWGQGTTVTVSS VL: DIVMTQSPLSLPVTPGEPASISCRSSQSLLHSSGHNFLHWYLQKPGQSPQLLIYEVSNRVSGVPDRFSGSGSGTDFTLKISRVEAEDVGVYYCMQQTQYPPTFGGGTKVEIKR , report its Kd.
0.1 nM
